System: dog primary hepatocytes
assay_notes: Depletion of inhibitors in dog primary hepatocyte suspension (LC-MS/MS), PK prediction
Type: in vitro ADME
run_conditions: dog, 0.3 cut-off of E between low and intermediate extraction
observable: Classification

[
  {
    "compound": "COc1ccc(-c2cccc(S(=O)(=O)N[C@@H](Cc3cccc(C(=N)N)c3)C(=O)N3CCC(NC(=O)NC4CCCCC4)CC3)c2)c(OC)c1 [MI-463]",
    "observable": "Classification",
    "assay_result": "Low-extraction drug"
  },
  {
    "compound": "COc1ccc(-c2cccc(S(=O)(=O)N[C@@H](Cc3cccc(C(=N)N)c3)C(=O)N3CCN(C(=O)NC4CCCCC4)CC3)c2)c(OC)c1 [MI-1900]",
    "observable": "Classification",
    "assay_result": "Low-extraction drug"
  }
]

###

Measured Extraction Ratio EH accompanies every entry in the list below.
System: dog primary hepatocytes
assay_notes: Depletion of inhibitors in dog primary hepatocyte suspension (LC-MS/MS), PK prediction
Type: in vitro ADME
run_conditions: dog
observable: Extraction Ratio EH

[
  {
    "smiles_representation": "COc1ccc(-c2cccc(S(=O)(=O)N[C@@H](Cc3cccc(C(=N)N)c3)C(=O)N3CCC(NC(=O)NC4CCCCC4)CC3)c2)c(OC)c1",
    "observable": "Extraction Ratio EH",
    "assay_result": 0.299
  },
  {
    "smiles_representation": "COc1ccc(-c2cccc(S(=O)(=O)N[C@@H](Cc3cccc(C(=N)N)c3)C(=O)N3CCC(NC(=O)NC(C)(C)C)CC3)c2)c(OC)c1",
    "observable": "Extraction Ratio EH",
    "assay_result": 0.321
  },
  {
    "smiles_representation": "COc1ccc(-c2cccc(S(=O)(=O)N[C@@H](Cc3cccc(C(=N)N)c3)C(=O)N3CCC(N)CC3)c2)c(OC)c1",
    "observable": "Extraction Ratio EH",
    "assay_result": 0.343
  },
  {
    "smiles_representation": "COc1ccc(-c2cccc(S(=O)(=O)N[C@@H](Cc3cccc(C(=N)N)c3)C(=O)N3CCN(C(=O)NC4CCCCC4)CC3)c2)c(OC)c1",
    "observable": "Extraction Ratio EH",
    "assay_result": 0.212
  }
]

###

Tested on: rat primary hepatocytes
assay_notes: Depletion of inhibitors in rat primary hepatocyte suspension (LC-MS/MS), PK prediction
Format: in vitro ADME
run_conditions: rat, 0.3 cut-off of E between low and intermediate extraction
observable: Classification

[
  {
    "smiles_representation": "COc1ccc(-c2cccc(S(=O)(=O)N[C@@H](Cc3cccc(C(=N)N)c3)C(=O)N3CCN(C(=O)NC4CCCCC4)CC3)c2)c(OC)c1",
    "assay_result": "Low-extraction drug"
  },
  {
    "smiles_representation": "COc1ccc(-c2cccc(S(=O)(=O)N[C@@H](Cc3cccc(C(=N)N)c3)C(=O)N3CCC(NC(=O)NC4CCCCC4)CC3)c2)c(OC)c1",
    "assay_result": "Low-extraction drug"
  }
]

###

Test system: rat primary hepatocytes
assay_notes: Depletion of inhibitors in rat primary hepatocyte suspension (LC-MS/MS), PK prediction
Type: in vitro ADME
run_conditions: rat
Item-by-item account of Extraction Ratio EH

[
  {
    "smiles_representation": "COc1ccc(-c2cccc(S(=O)(=O)N[C@@H](Cc3cccc(C(=N)N)c3)C(=O)N3CCC(NC(=O)NC4CCCCC4)CC3)c2)c(OC)c1",
    "Extraction Ratio EH": 0.289
  },
  {
    "smiles_representation": "COc1ccc(-c2cccc(S(=O)(=O)N[C@@H](Cc3cccc(C(=N)N)c3)C(=O)N3CCC(NC(=O)NC(C)(C)C)CC3)c2)c(OC)c1",
    "Extraction Ratio EH": 0.314
  },
  {
    "smiles_representation": "COc1ccc(-c2cccc(S(=O)(=O)N[C@@H](Cc3cccc(C(=N)N)c3)C(=O)N3CCN(C(=O)NC4CCCCC4)CC3)c2)c(OC)c1",
    "Extraction Ratio EH": 0.298
  },
  {
    "smiles_representation": "COc1ccc(-c2cccc(S(=O)(=O)N[C@@H](Cc3cccc(C(=N)N)c3)C(=O)N3CCC(N)CC3)c2)c(OC)c1",
    "Extraction Ratio EH": 0.305
  }
]
